Target: Nuclear receptor subfamily 1 group I member 2 (Homo sapiens) (UniProt O75469)
Sequence (O75469 whole entry, looked up): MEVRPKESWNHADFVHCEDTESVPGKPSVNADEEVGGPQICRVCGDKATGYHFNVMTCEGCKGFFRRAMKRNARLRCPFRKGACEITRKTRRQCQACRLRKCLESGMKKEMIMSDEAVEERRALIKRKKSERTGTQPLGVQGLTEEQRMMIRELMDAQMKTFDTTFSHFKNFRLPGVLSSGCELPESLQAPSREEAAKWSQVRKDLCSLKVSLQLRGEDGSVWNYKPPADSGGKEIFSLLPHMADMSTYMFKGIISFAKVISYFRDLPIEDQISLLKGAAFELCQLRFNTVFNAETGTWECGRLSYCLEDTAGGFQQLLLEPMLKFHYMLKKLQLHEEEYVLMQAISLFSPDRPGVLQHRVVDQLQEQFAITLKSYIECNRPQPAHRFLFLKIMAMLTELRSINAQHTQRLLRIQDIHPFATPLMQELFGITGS
Experiment: ATG_PXR_TRANS: Attagene TRANS-FACTORIAL HepG2 Assay for human Pregnane X Receptor (PXR) (AID 2283008)
Inconclusive results are not listed. The source made the active and inactive calls. How the source made its calls: active means hit-call score of the fitted dose curve at least 0.9, where 1 is the maximum; inconclusive means response in the unintended direction; inactive means score below 0.9.
MEASURED_ENDPOINT: AC50

Example entries begin here.
COMPOUND | TESTED_TARGET | AC50
OC[C@@H](O)[C@@H](O)[C@H](O)[C@H](O)CO | Nuclear receptor subfamily 1 group I member 2 (Homo sapiens) (UniProt O75469) | inactive
COCCOC[C@H](CC1(C(=O)NC2CCC(C(=O)O)CC2)CCCC1)C(=O)Oc1ccc2c(c1)CCC2 (stereo partly specified) | Nuclear receptor subfamily 1 group I member 2 (Homo sapiens) (UniProt O75469) | 20.6 µM (active)
CN[C@H]1CC[C@@H](c2ccc(Cl)c(Cl)c2)c2ccc(S(N)(=O)=O)cc21 | Nuclear receptor subfamily 1 group I member 2 (Homo sapiens) (UniProt O75469) | inactive
C[C@]12C=CC(=O)C=C1CC[C@@H]1[C@@H]2C(=O)C[C@@]2(C)[C@H]1CC[C@]2(O)C(=O)CO | Nuclear receptor subfamily 1 group I member 2 (Homo sapiens) (UniProt O75469) | inactive
CCCCCCOCCO | Nuclear receptor subfamily 1 group I member 2 (Homo sapiens) (UniProt O75469) | inactive

I'm curious: which AC50 was measured for Cc1ccc(C)c(O)c1C tested on Nuclear receptor subfamily 1 group I member 2 (Homo sapiens) (UniProt O75469)? inactive

Reported AC50 for Nuclear receptor subfamily 1 group I member 2 (Homo sapiens) (UniProt O75469), given COC(=O)c1ccc(O)cc1 ? inactive

Identify the measured AC50 of NS(=O)(=O)c1cc2c(cc1Cl)NCNS2(=O)=O for Nuclear receptor subfamily 1 group I member 2 (Homo sapiens) (UniProt O75469). inactive

Notebook: pull reported AC50 for Nuclear receptor subfamily 1 group I member 2 (Homo sapiens) (UniProt O75469), entry CCCCC(CC)COC(=O)CC(C(=O)OCC(CC)CCCC)S(=O)(=O)O (stereo unspecified) 0.678 µM (active)

What value of AC50 on Nuclear receptor subfamily 1 group I member 2 (Homo sapiens) (UniProt O75469) does Cc1oc(-c2ccccc2)nc1CCOc1cccc2c1ccn2CCC(=O)O have? 10.9 µM (active)

Hi! What's the reported AC50 for O=C(O)Cc1ccccc1Nc1c(Cl)cccc1Cl on Nuclear receptor subfamily 1 group I member 2 (Homo sapiens) (UniProt O75469)? 4.47 µM (active)
